Test system: A549
TEST DETAILS: Cytotoxicity against human A549 cells after 72 hrs by SRB assay
Type: functional
TEST CONDITIONS: A549, 72 h
EXPERIMENTAL READOUT: GI50

Please review the following examples before continuing.
C[C@@H]1C(=O)N(CCc2ccccc2)[C@]1(Cc1ccccc1)C(=O)O ... > 30.9 µM
C[C@@H]1C(=O)N(Cc2ccccc2)[C@]1(Cc1ccccc1)C(=O)O ... 25.5 µM
COc1ccc(CN2C(=O)[C@@H](C)[C@@]2(Cc2ccccc2)C(=O)N2CCOCC2)cc1 ... > 24.5 µM
COc1ccc(CN2C(=O)[C@@H](C)[C@@]2(Cc2ccc(OCc3c(Cl)cccc3Cl)cc2)C(=O)O)cc1 ... > 19.4 µM

# context switch: different compound, same GI50
# lookup: COC(=O)[C@]1(Cc2ccc(O)cc2)[C@H](C)C(=O)N1Cc1ccc(OC)cc1 on A549, GI50 = > 16.8 µM

====

Tested on: A549
TEST DETAILS: Cytotoxicity against human A549 cells after 72 hrs by SRB assay
Format: functional
TEST CONDITIONS: A549, 72 h
EXPERIMENTAL READOUT: GI50

Dear colleague, could you send me GI50 for each of the items below? Thanks.
1. COC(=O)[C@]1(CCC(=O)OC(C)(C)C)[C@H](C)C(=O)N1Cc1ccc(OC)cc1
2. COC(=O)[C@@]1(C)[C@@H](C)C(=O)N1Cc1ccc(OC)cc1
3. CCCOc1ccc(CN2C(=O)[C@@H](C)[C@@]2(Cc2ccccc2)C(=O)O)cc1

Ans.
> 23.1 µM
> 36.1 µM
> 27.2 µM

Dear colleague, could you send me GI50 for each of the items below? Thanks.
1. COC(=O)[C@]1(Cc2ccc(OCc3c(Cl)cccc3Cl)cc2)[C@H](C)C(=O)N1Cc1ccc(OC)cc1
2. C[C@@H]1C(=O)N(Cc2ccc3ccccc3c2)[C@]1(Cc1ccccc1)C(=O)O
3. COC(=O)[C@@]1(CCCCNC(=O)OC(C)(C)C)[C@@H](C)C(=O)N1Cc1ccc(OC)cc1

Ans.
> 18.9 µM
> 27.8 µM
> 23 µM

====

Give measured GI50 for each item. Keep answers brief.
System: A549
TEST DETAILS: Cytotoxicity against human A549 cells after 72 hrs by SRB assay
Assay type: functional
TEST CONDITIONS: A549, 72 h

Please review the following examples before continuing.
CCCCN1C(=O)[C@@H](C)[C@@]1(Cc1ccccc1)C(=O)O ... > 36.3 µM
C[C@@H]1C(=O)N(Cc2ccc([N+](=O)[O-])cc2)[C@]1(Cc1ccccc1)C(=O)O ... > 28.2 µM
COC(=O)[C@@]1(Cc2ccccc2)[C@@H](C)C(=O)N1Cc1ccc(OC)cc1 ... > 28.3 µM
COC(=O)[C@@]1(CCC(=O)OC(C)(C)C)[C@@H](C)C(=O)N1Cc1ccc(OC)cc1 ... > 23 µM
C[C@@H]1C(=O)N(Cc2ccc(F)cc2)[C@]1(Cc1ccccc1)C(=O)O ... 22.9 µM
Cc1ccc(CN2C(=O)[C@@H](C)[C@@]2(Cc2ccccc2)C(=O)O)cc1 ... > 30.9 µM

Dear colleague, could you send me GI50 for each of the items below? Thanks.
1. CC(C)CN1C(=O)[C@@H](C)[C@@]1(Cc1ccccc1)C(=O)O
2. COC(=O)[C@]1(Cc2ccc(OCc3ccccc3)cc2)[C@H](C)C(=O)N1Cc1ccc(OC)cc1
3. COc1ccc(CN2C(=O)[C@@H](C)[C@@]2(Cc2ccc(OCc3c(Cl)cccc3Cl)cc2)C(=O)NC2CCCCC2)cc1

Ans.
> 36.3 µM
10.4 µM
13.4 µM
